particulars: in toluene, 273.15 K
metricName: solubility (mole fraction)

{"columns": ["smilesRepr", "metricName", "experimentalValue"],
 "data": [
  ["CC(=O)Oc1ccc(C(c2ccc(OC(C)=O)cc2)c2ccccn2)cc1", "solubility (mole fraction)", 0.00044]
]}

---

particulars: in acetonitrile, 278.15 K

{"columns": ["smilesRepr", "solubility (mole fraction)"],
 "data": [
  ["CC(=O)Oc1ccc(C(c2ccc(OC(C)=O)cc2)c2ccccn2)cc1", 0.00115]
]}

---

particulars: in methanol, 313.15 K

{"columns": ["smilesRepr", "solubility (mole fraction)"],
 "data": [
  ["CC(=O)Oc1ccc(C(c2ccc(OC(C)=O)cc2)c2ccccn2)cc1", 0.000254]
]}
